Assignment: determine reported normalized growth for the given compounds.
- procedure.details: chemical genetic growth profiling, strain panel (AID 1159580);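 also: tested at 20 µM; growth read once vehicle control cultures reached saturation at 30 °C; 1 = growth at the plate median or of vehicle wells; lower values mean less growth of the strain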
- condition.notes: S. cerevisiae deletion strains, growth OD, locus YNL153C, strain GIM3, active compounds read low
Screen size: about 5,500 compounds; about 2,000 (36%) were called active. About 18% were inconclusive and are not listed. The list shows a part of the results.
Answers are plain numbers.

smiles.representation: CC(=O)NN(C)c1ccc(C(F)(F)F)cc1[N+](=O)[O-]
normalized growth: 1.01
--
smiles.representation: COc1ccc(/C(C)=N\NC2=NCCCN2)cc1
normalized growth: 1.01
--
smiles.representation: Cn1cnc2c(NC3CCCC3)ncnc21
normalized growth: 1.02

We now examine a further compound.
normalized growth in this record for NC(=S)Nc1cc(Cl)ccc1Cl : 1
